Test system: SK-PN-DW (Other Solid Carcinomas)
Assay: combination Emax (second highest fraction inhibited in the dose matrix, 72 h); higher = more inhibition; extreme values may be limits of the assay
combination Emax by entry:
Lab note: jot the number down without any unit.

NC1(C(=O)N[C@@H](CCO)c2ccc(Cl)cc2)CCN(c2ncnc3[nH]ccc23)CC1 [Capivasertib] + CC(C)n1c(=O)n(C)c2cnc3cc(F)c(-c4ccc(OCCCN5CCCCC5)nc4)cc3c21 [AZD1390] (first compound max 10 µM, 7x7, partner max 0.3 µM) :: 0.597
COc1nnc2ccc(N3CCC(c4ccc(OCCN5CCN(C)C(=O)[C@H]5C)cc4)CC3)nn12 [AZD5153] + CCN(CCO)CCCOc1ccc2c(Nc3cc(CC(=O)Nc4cccc(F)c4)[nH]n3)ncnc2c1 [AZD2811] (first compound max 1 µM, 7x7, partner max 1 µM) :: 0.726
Cc1c2c(nn1C)CSCc1cc(n(C)n1)CSc1cc(c3ccccc3c1)OCCCc1c(C(=O)O)n(C)c3c-2c(Cl)ccc13 [AZD5991] + C1CN(CCC1(C(=O)N[C@@H](CCO)C2=CC=C(C=C2)Cl)N)C3=NC=NC4=C3C=CN4 [Capivasertib] (first compound max 1 µM, 7x7, partner max 3 µM) :: 0.95
Cc1c2c(nn1C)CSCc1cc(n(C)n1)CSc1cc(c3ccccc3c1)OCCCc1c(C(=O)O)n(C)c3c-2c(Cl)ccc13 [AZD5991] + CCN(CCO)CCCOc1ccc2c(Nc3cc(CC(=O)Nc4cccc(F)c4)[nH]n3)ncnc2c1 [AZD2811] (first compound max 1 µM, 7x7, partner max 1 µM) :: 0.985
Cc1cc2ncnn2cc1Nc1ncc2c(n1)n(C1CCOCC1)c(=O)n2C [AZD7648] + O=C(c1cc(Cc2n[nH]c(=O)c3ccccc23)ccc1F)N1CCN(C(=O)C2CC2)CC1 [Olaparib] (first compound max 10 µM, 7x7, partner max 10 µM) :: 0.395

The value of combination Emax measured for the compound Cc1cc2ncnn2cc1Nc1ncc2c(n1)n(C1CCOCC1)c(=O)n2C [AZD7648] + C=CCn1c(=O)c2cnc(Nc3ccc(N4CCN(C)CC4)cc3)nc2n1-c1cccc(C(C)(C)O)n1 [AZD1775] (first compound max 10 µM, partner max 1 µM) turned out to be 0.875

The value of combination Emax measured for the compound NC1(C(=O)N[C@@H](CCO)c2ccc(Cl)cc2)CCN(c2ncnc3[nH]ccc23)CC1 [Capivasertib] + C[C@@H]1COCCN1C2=NC(=NC(=C2)C3(CC3)[S@](=N)(=O)C)C4=C5C=CNC5=NC=C4 [AZD6738] (first compound max 10 µM, 7x7, partner max 10 µM) turned out to be 0.925
